# target.under.test: T1, human TL1A extracellular domain with N-terminal HIS and FLAG tag (human, UniProt O95150 72-251)
# T1 construct: the whole entry is named
# T1 sequence: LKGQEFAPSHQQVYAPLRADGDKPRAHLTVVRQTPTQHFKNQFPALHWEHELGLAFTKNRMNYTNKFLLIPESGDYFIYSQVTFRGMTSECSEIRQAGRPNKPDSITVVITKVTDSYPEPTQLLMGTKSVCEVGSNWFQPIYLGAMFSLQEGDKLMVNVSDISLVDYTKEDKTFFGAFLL
# protocol: SPR Run 4, purified Ab captured on Protein A, TL1A 5 ug/mL, timepoint 220
In this section we review reported TL1A Binding Level (Late) values for a set of binders.
readout: TL1A Binding Level (Late) (RU)

1. 320-330 (antibody, human IgG1, name in Kabat numbering, V domains shown, human IgG1, lambda) VH: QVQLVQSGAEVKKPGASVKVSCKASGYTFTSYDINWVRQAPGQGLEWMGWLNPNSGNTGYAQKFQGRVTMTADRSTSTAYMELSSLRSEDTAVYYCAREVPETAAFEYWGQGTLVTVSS VL: QSVLTQPPSVSGAPGQRVTISCTSSSSDIGAGLGVHWYQQLPGTAPKLLIEGYYNRPSGVPDRFSGSKSGTSASLTITGLLPEDEGDYYCQSLDGTLSALFGGGTKLTVLG ... 119
2. 320-346 (antibody, human IgG1, name in Kabat numbering, V domains shown, human IgG1, lambda) VH: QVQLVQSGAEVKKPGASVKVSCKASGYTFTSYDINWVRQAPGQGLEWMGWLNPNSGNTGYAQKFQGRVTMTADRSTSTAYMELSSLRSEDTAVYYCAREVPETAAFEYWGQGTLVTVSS VL: QSVLTQPPSVSGAPGQRVTISCTSSSSDIGAGLGVHWYQQLPGTAPKLLIEGYYNRPSGVPDRFSGSKSGTSASLTITGLLPEDEGDYYCQSYDLTLSALFGGGTKLTVLG ... 107
